# TGI listing for each entry below
System: OVCAR-5 ovarian
method.notes: NCI tumour cell line growth inhibition, 48 h

compound: C1CSC[C@H]2COC[C@@H](CSCCS1)S2
study.target: OVCAR-5 ovarian
TGI: > 100 µM

What value of measured TGI is listed for CCOC(=O)c1sc2c(C(=O)OCC)n3cc(C)cc(C)c3c2c1O ? > 100 µM

How about Nc1c(C(=O)c2cccc(C(O)CO)c2)cnn1-c1ccc(F)cc1 (centres undefined) ? > 25 µM

Field entry: CCOC(=O)c1c(N2CCCC2)[nH]c(=O)c(C(c2ccc(N(C)C)cc2)c2c(O)c(C(=O)OCC)c(N3CCCC3)[nH]c2=O)c1O > 100 µM

Item: COc1cc2c(cc1OC)C(C(CBr)CBr)N(C1CCCC1)CC2 (centres undefined) > 100 µM

Another: C=C(CN(CC)CC)C1(c2ccccc2)CC2(CCCC2)C(=O)O1 (centres undefined) > 100 µM

Try the compound CC12CCC(=O)C(O1)C1C(=O)c3ccc4c(ccc5ccccc54)c3C(=O)C12 (centres undefined) 11.4 µM

Next entry: CC(C)[P+](c1ccccc1)(c1ccccc1)c1ccccc1 > 100 µM

Next compound: c1cc2cc3c4c5c(cc6ccc7cc8cc9c%10c8c8c7c6c5c8c5c%10c(c1C9N1CCOCCOCCOCCOCCOCC1)c2c45)C3 (centres undefined) > 100 µM

Try the compound O=C1OC(=O)C23CSCC12C1C=CC3O1 (centres undefined) > 100 µM

* * *

Test system: DU-145 prostate
method.notes: NCI tumour cell line growth inhibition, 48 h
observable: TGI

molecule: Cc1ccc(S(=O)(=O)OCCC2CN(C(=O)OCc3ccccc3)C(C)(C)O2)cc1 (stereo unspecified)
endpoint.result: > 100 µM

We next turn to a different molecule, shown below.
// returns reported TGI for input CC(c1ccccc1)n1cncc1C(=O)NN1CCN(C)CC1 (stereo unspecified) > 10 µM

* * *

Reported TGI is given for each of the following compounds.
Test system: IGROV1 ovarian
method.notes: NCI tumour cell line growth inhibition, 48 h
Express it in µM; write the number only.

compound: O=C1C(N2CCN(CCOCCO)CC2)=C(Cl)C(=O)c2ncccc21
observable: TGI
endpoint.result: 31.4

Identify the measured TGI of CC(CCc1nc2ccccc2s1)(c1ccc(O)cc1)c1ccc(O)cc1 for IGROV1 ovarian. 28.3

* * *

Test system: SK-MEL-2 melanoma
method.notes: NCI tumour cell line growth inhibition, 48 h; in the data active means GI50 below about 0.43 µM; inactive means the rest
Permitted responses: active, inactive

Short answer needed: outcome of this test for Nc1c(C(=O)c2cccc(C(O)CO)c2)cnn1-c1ccc(F)cc1 (stereo not given) ? inactive

Please do the same for Cc1nc(NS(=O)(=O)c2ccc(NCN3C(=O)c4ccccc4C3=O)cc2)oc1C as well. inactive

Query O=C1NC(=O)C(c2cccc(Cl)c2)=C1Nc1ccc(Cl)c(C(=O)O)c1 next inactive

CC(C)C[C@H](NC(=O)Cn1cccc(CNC(=O)c2ccccc2)c1=O)B(O)O ? active

* * *

System: T-47D breast
method.notes: NCI tumour cell line growth inhibition, 48 h
Overview of reported GI50 across a group of molecules:

Below are worked cases with known answers.
molecule: CCN1CCN(c2cc(C(=O)Nc3cccc(Nc4ccc5c(OC)cccc5n4)c3)cc(C(F)(F)F)c2)CC1
endpoint.result: 2.05 µM
--
molecule: N#C/C(=C/N1CCN(C(=O)c2ccco2)C1=S)C(=O)Nc1ccc(Cl)cc1
endpoint.result: > 50 µM
--
molecule: C=C(C(=O)OC)[C@@H]1CC2OC1C(=O)C(C)CCC/C(C)=C/CC[C@@]2(C)O (some centres undefined)
endpoint.result: 59.8 µM

// switching to the query molecule
Write down the reported GI50 of COC1=C(OC)C(=O)C(C/C=C(\C)CC/C=C(\C)CC/C=C(\C)CC/C=C(\C)CC/C=C(\C)CC/C=C(\C)CC/C=C(\C)CC/C=C(\C)CC/C=C(\C)CCC=C(C)C)=C(C)C1=O , test system: T-47D breast. > 100 µM
